Molecular target: Abeta42 beta amyloid peptide (UniProt P05067)
Sequence (P05067 672-713 limits assumed): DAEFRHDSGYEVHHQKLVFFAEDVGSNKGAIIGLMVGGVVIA
Assay: competition ELISA, NS0 supernatant titrated against 0.25 ug/ml biotinylated mouse 6E10 (mouse MDT-2007) on coated beta amyloid; IC50 normalised to mouse 6E10 (=1; <1 improved)
ASSAY_METRIC: fold difference in IC50 relative to mouse 6E10 (fold)
Record the value in fold, omitting the unit from your answer.

In the examples that follow, each entry is paired with its recorded fold difference in IC50 relative to mouse 6E10.
[[record]]
binder = "Composite human antibody variant VH3/VK3 (antibody, human IgG1, V domains shown) VH: QVQLVQSGAEVKKPGASVKVSCTASGFNIKDTYIHWVRQARGQRLEWIGRFDPVNVNTRYDSRFRGRATITSDASTNTAYMELSSLRSEDTAVYYCSRSYYNGRRRFTYWGQGTLVTVSS VL: DIVMTQSPSSLTASVGDRVTITCKASQSLLSSGNQKNYLTWYQQKPGQPPKLLIYWASIRESGVPDRFSGSGSGTDFTLTISSLQAEDVAVYYCQNDYNYPFTFGQGTKLEIK"
reported_result = 1.57

[[record]]
binder = "Composite human antibody variant VH5/VK3 (antibody, human IgG1, V domains shown) VH: QVQLVQSGAEVKKPGASVKVSCTASGFNIKDTYIHWVRQARGQRLEWIGRFDPVNVNTRYDSRFRGRVTITSDASTSTAYMELSSLRSEDTAVYYCSRSYYNGRRRFTYWGQGTLVTVSS VL: DIVMTQSPSSLTASVGDRVTITCKASQSLLSSGNQKNYLTWYQQKPGQPPKLLIYWASIRESGVPDRFSGSGSGTDFTLTISSLQAEDVAVYYCQNDYNYPFTFGQGTKLEIK"
reported_result = 1.02


According to the records, this binder Composite human antibody variant VH1/VK1 (antibody, V domains shown) VH: EVQLVQSGAELKKPGASVKVSCTASGFNIKDTYIHWVRQAPGQRLEWIGRFDPVNVNTRYDSRFRGRATITSDASTNTAYMELSSLRSEDTAVYYCSRSYYNGRRRFTYWGQGTLVTVSS VL: DIVMTQSPDSLTVSLGERATINCKASQSLLSSGNQKNYLTWYQQKPGQPPKLLIYWASIRESGVPDRFTGSGSGTFFTLTISSLQAEDVAVYYCQNDYNYPFTFGQGTKLEIK displays fold difference in IC50 relative to mouse 6E10 of 0.78

fold difference in IC50 relative to mouse 6E10 for Composite human antibody variant VH2/VK3 (antibody, human IgG1, V domains shown) VH: EVQLVQSGAEVKKPGASVKVSCTASGFNIKDTYIHWVRQARGQRLEWIGRFDPVNVNTRYDSRFRGRATITSDASTNTAYMELSSLRSEDTAVYYCSRSYYNGRRRFTYWGQGTLVTVSS VL: DIVMTQSPSSLTASVGDRVTITCKASQSLLSSGNQKNYLTWYQQKPGQPPKLLIYWASIRESGVPDRFSGSGSGTDFTLTISSLQAEDVAVYYCQNDYNYPFTFGQGTKLEIK is 0.96
